Tested on: M. catarrhalis 2524
Test: In vitro antibacterial activity test (broth microdilution)
Type: cell-based
Details: Moraxella catarrhalis; M. catarrhalis 2524; read-out: MIC90
QUANTITY NAME: MIC90 (µg/mL)
One number for each entry, in µg/mL.

Solved entries:
{"COMPOUND": "CC(C)(O/N=C(\\C(=O)N[C@@H]1C(=O)N2C(C(=O)[O-])=C(C[n+]3cnc(N)c(NCCNC(=O)c4ccc(O)c(C(=O)O)c4)c3)CSC12)c1csc(N)n1)C(=O)O (stereo partly drawn)", "UNITS LABEL": "µg/mL", "MIC90": 2}
{"COMPOUND": "CC(C)(O/N=C(\\C(=O)N[C@@H]1C(=O)N2C(C(=O)[O-])=C(/C=C/C[n+]3cnc(N)c(NC(=O)CCNC(=O)c4cc(=O)c(O)c[nH]4)c3)CSC12)c1csc(N)n1)C(=O)O (stereo partly drawn)", "UNITS LABEL": "µg/mL", "MIC90": 2}

Now for another entry.
Which value of MIC90 has been reported for CC(C)(O/N=C(\C(=O)N[C@@H]1C(=O)N2C(C(=O)[O-])=C(/C=C/C[n+]3cnc(N)c(NCCNC(=O)c4cc(=O)c(O)cn4O)c3)CSC12)c1csc(N)n1)C(=O)O (stereo partly drawn) in the records?
0.5

###

Test system: E. cloacae β19
Experiment: In vitro antibacterial activity test (broth microdilution)
Format: cell-based
Details: Enterobacter cloacae, read-out: MIC90
QUANTITY NAME: MIC90 (µg/mL)
Answers are plain numbers, in µg/mL.

{"COMPOUND": "CC(C)(O/N=C(\\C(=O)N[C@@H]1C(=O)N2C(C(=O)[O-])=C(C[n+]3cnc(N)c(NCCCNC(=O)c4ccc(O)c(O)c4)c3)CSC12)c1csc(N)n1)C(=O)O (stereo partly drawn)", "QUANTITY NAME": "MIC90", "VALUE REPORTED": 16}

Kindly give each listed record's MIC90.
1. C[C@H](O/N=C(\C(=O)N[C@@H]1C(=O)N2C(C(=O)[O-])=C(C[n+]3cnc(N)c(NCCNC(=O)c4cc(=O)c(O)cn4O)c3)CSC12)c1csc(N)n1)C(=O)O (stereo partly drawn)
2. CC(C)(O/N=C(\C(=O)N[C@@H]1C(=O)N2C(C(=O)[O-])=C(/C=C/C[n+]3cnc(N)c(NC(=O)c4cc(=O)c(O)cn4O)c3)CSC12)c1csc(N)n1)C(=O)O (stereo partly drawn)

[2, 64]

###

Test system: P. aeruginosa 6065Y
Assay: In vitro antibacterial activity test (broth microdilution)
Type: cell-based
Details: Pseudomonas aeruginosa, read-out: MIC90
Mark each entry y if its MIC90 sits below 2 µg/mL, and n for all others.

Worked examples follow.
{"MOLECULE": "CNc1nc[n+](CC2=C(C(=O)[O-])N3C(=O)[C@@H](NC(=O)/C(=N\\OC(C)(C)C(=O)O)c4csc(N)n4)C3SC2)cc1N (stereo partly shown)", "CATEGORY LABEL": "n"}
{"MOLECULE": "C[C@H](O/N=C(\\C(=O)N[C@@H]1C(=O)N2C(C(=O)[O-])=C(C[n+]3cnc(N)c(NCCNC(=O)c4cc(=O)c(O)cn4O)c3)CSC12)c1nc(N)sc1Cl)C(=O)O (stereo partly shown)", "CATEGORY LABEL": "y"}
{"MOLECULE": "CC(C)(O/N=C(\\C(=O)N[C@@H]1C(=O)N2C(C(=O)[O-])=C(C[n+]3cnc(N)c(NCCCNC(=O)c4ccc(O)c(O)c4)c3)CSC12)c1csc(N)n1)C(=O)O (stereo partly shown)", "CATEGORY LABEL": "n"}
{"MOLECULE": "C[C@H](O/N=C(\\C(=O)N[C@@H]1C(=O)N2C(C(=O)[O-])=C(C[n+]3cnc(N)c(NC(=O)CCNC(=O)c4cc(=O)c(O)cn4O)c3)CSC12)c1nc(N)sc1Cl)C(=O)O (stereo partly shown)", "CATEGORY LABEL": "y"}

Would you kindly look at the next entry?
# check: MIC90 < 2 µg/mL for CC(C)(O/N=C(\C(=O)N[C@@H]1C(=O)N2C(C(=O)[O-])=C(C[n+]3cnc(N)c(N)c3)CSC12)c1csc(N)n1)C(=O)O (stereo partly shown)
n
